Test system: tyrosinase (monophenolase and diphenolase activity) in the presence of HgCl2
Experiment: Effect of premixing amino acids with HgCl2 on tyrosinase inhibition (protection of enzyme activity)
Type: biochemical, mushroom
Conditions: amino acid premixed with HgCl2
value-type: effect on protecting the monophenolase activity in the presence of HgCl2

N[C@@H](CCC(=O)O)C(=O)O [Glu, glutamate] | no effects
C[C@H](N)C(=O)O [Ala, alanine] | no effects
CC(C)[C@H](N)C(=O)O [Val, valine] | no effects

====

Target: mushroom tyrosinase (diphenolase activity) (Agaricus bisporus, UniProt C7FF04)
Sequence (C7FF04 1-392): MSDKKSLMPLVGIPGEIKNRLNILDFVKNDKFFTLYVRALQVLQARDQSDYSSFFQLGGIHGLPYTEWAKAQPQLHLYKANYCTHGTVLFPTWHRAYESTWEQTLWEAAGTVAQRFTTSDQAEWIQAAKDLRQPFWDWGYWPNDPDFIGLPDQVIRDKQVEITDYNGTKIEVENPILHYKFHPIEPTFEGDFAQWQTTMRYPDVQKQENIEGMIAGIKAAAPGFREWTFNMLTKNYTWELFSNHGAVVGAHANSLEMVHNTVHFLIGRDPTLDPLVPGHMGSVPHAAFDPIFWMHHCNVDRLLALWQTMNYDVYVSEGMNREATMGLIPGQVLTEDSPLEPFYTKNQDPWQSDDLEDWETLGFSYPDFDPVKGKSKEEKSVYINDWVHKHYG
value-type: pIC50
For clarity, pIC50 is expressed as the negative log10 of concentration in mol/L.

Observed pIC50, mushroom tyrosinase (diphenolase activity) (Agaricus bisporus, UniProt C7FF04), [Cl][Hg][Cl] [HgCl2, Mercuric chloride] : 4.11
